Measured IC50, listed per entry for reference.
- TARGET DESC: prolyl endopeptidase (Elizabethkingia meningoseptica)
- Sequence (P27028 21-705): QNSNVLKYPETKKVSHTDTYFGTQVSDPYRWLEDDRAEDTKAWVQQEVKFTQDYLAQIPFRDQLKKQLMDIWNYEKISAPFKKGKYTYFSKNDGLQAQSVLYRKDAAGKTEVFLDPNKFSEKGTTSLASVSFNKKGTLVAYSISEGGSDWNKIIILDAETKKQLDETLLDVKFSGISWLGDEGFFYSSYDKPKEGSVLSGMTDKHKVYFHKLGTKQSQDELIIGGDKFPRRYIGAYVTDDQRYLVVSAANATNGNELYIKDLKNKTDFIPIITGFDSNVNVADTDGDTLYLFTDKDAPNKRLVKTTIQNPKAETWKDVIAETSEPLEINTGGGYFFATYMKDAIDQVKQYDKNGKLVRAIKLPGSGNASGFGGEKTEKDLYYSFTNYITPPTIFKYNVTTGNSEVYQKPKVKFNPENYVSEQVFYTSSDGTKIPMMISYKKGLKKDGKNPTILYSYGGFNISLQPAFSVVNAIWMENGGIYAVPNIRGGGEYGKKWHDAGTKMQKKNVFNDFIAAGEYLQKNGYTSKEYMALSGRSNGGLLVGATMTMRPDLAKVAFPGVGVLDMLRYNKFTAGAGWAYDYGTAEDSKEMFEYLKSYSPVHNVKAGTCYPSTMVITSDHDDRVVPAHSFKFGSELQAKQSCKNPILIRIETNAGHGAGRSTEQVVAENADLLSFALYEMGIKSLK
- PROCEDURE SUMMARY: Anti-prolyl endopeptidase activity (inhibition of digestion of Z-glycyl-prolyl-β-naphthylamide)
- Assay type: biochemical
- SETUP CONDITIONS: amount for 50% inhibition; 0.0025M Z-glycyl-prolyl-β-naphthylamide (0.25 ml), pH 7.0, 35° C., 10 minutes, absorbance at 410 nm
PROPERTY LABEL: IC50

1) COc1ccc(C(=O)O[C@@H]2C[C@@H](C(=O)N3CCCC3)N(C(=O)CCCc3ccccc3)C2)cc1 [SUAM 14497]
0.15 μg/test tube
2) O=C(O[C@@H]1C[C@@H](C(=O)N2CCCC2)N(C(=O)CCCc2ccccc2)C1)c1ccccc1 [SUAM 14498]
0.30 μg/test tube
3) O=C([C@@H]1C[C@H](Oc2ccccc2)CN1C(=O)CCCc1ccccc1)N1CCCC1 [SUAM 14504]
0.02 μg/test tube
4) O=C([C@@H]1C[C@H](O)CN1C(=O)CCCc1ccccc1)N1CCCC1 [SUAM 14496]
0.10 μg/test tube
5) COc1ccccc1O[C@H]1C[C@@H](C(=O)N2CCCC2)N(C(=O)CCCc2ccccc2)C1 [SUAM 14467]
0.008 μg/test tube
6) CC(=O)O[C@@H]1C[C@@H](C(=O)N2CCCC2)N(C(=O)CCCc2ccccc2)C1 [SUAM 14506]
0.03 μg/test tube
